Test system: Schistosoma mansoni
Assay details: WHO-TDR: Schistosomiasis
Assay type: functional
Design: concentration or dose not given beside the values
Quick reference: % Inhibition of the listed items.
Remember to quote the unit after the number.

Lookup: Name the recorded % Inhibition for `CC1(C)Cc2cccc(OCCCS(=O)(=O)NCc3cccs3)c2O1` .
Found: 0%

Lookup: What about `O=C(Nc1nnc(S)s1)c1cc(Br)ccc1Cl` ?
Found: 0%

Lookup: One more compound: `O=C(CCSc1ccccc1)NCCOc1ccc2nnc(-c3ccc(F)cc3)n2n1`
Found: 41.7%

Lookup: And then `O=C(CSc1ccc(-c2ccc(-n3cccn3)cc2)nn1)Nc1ccc2c(c1)OCO2` , what is it?
Found: 0%

Lookup: Consider next the compound `COc1ccc(OC)c(-c2csc(NC(=O)Cc3ccc(SC)cc3)n2)c1` in the same way.
Found: 0%

Lookup: Now give it for `Cc1cc2cc(CCNC(=O)C3c4ccccc4Oc4ccccc43)c(O)nc2cc1C` too.
Found: 0%

Lookup: Continue with CN1CCc2cc(C(CNC(=O)COc3ccc(Cl)cc3Cl)N3CCCC3)ccc21 (centres undefined)
Found: 0%

Lookup: Input `CC(C)N1CCc2c(sc(NC(=O)c3sc4ccccc4c3Cl)c2C(N)=O)C1`
Found: 0%

Lookup: Now consider `Cc1cccc(NC(=O)Cn2cc(S(=O)(=O)c3ccc(F)cc3)c3ccccc32)n1` and answer again.
Found: 0%

Lookup: Now the same for `Cc1cc(-c2nnc(NC(=O)CSc3ccc(F)cc3)o2)nn1C`
Found: 0%

Lookup: Moving on to the next compound: `O=C(CSc1nncc(=O)[nH]1)Nc1cc(C(F)(F)F)ccc1Cl`
Found: 100%

Lookup: Param item: `CCOC(=O)Cn1/c(=N/C(=O)c2ccc(N3C(=O)CCC3=O)cc2)sc2c(C)cc(C)cc21`
Found: 0%

Lookup: What do you get for `O=C(Nc1ccc2c(c1)OCCO2)c1oc2ccccc2c1NC(=O)C1c2ccccc2Oc2ccccc21` ?
Found: 100%

###

Assay details: WHO-TDR: Cytotoxicity
Format: toxicity, cell-based
Condition details: human, MRC5 cells
Attribute measured: IC50

# count of solved cases: 3
• O=C(NCCNc1ccc(Nc2ccccn2)nn1)c1ccc(C(F)(F)F)cc1 = 7.71 mg/L
• COc1ccc(-c2nc(NC(=O)CSc3ccc(Cl)cc3)sc2C)cc1 = > 12.1 mg/L
• Cc1ccc(NC(=O)c2oc3ccccc3c2NC(=O)CC(c2ccccc2)c2ccccc2)cc1C = > 14.7 mg/L

Lookup: # IC50 lookup, item `O=C(/C=C/c1cccs1)N(CCCN1CCOCC1)c1nc2ccccc2s1`
Found: > 13.5 mg/L

Lookup: Follow-up entry: Cc1c(Cl)ccc2sc(NC(=O)c3ccc(S(=O)(=O)N4CC(C)CC(C)C4)cc3)nc12 (stereo not given)
Found: > 14.3 mg/L

###

Assay details: WHO-TDR: Cytotoxicity
Format: toxicity, cell-based
Condition details: human, MRC5 cells
Attribute measured: IC50

Recorded results for 10 compounds are shown here.
• Cc1nnc(NC(=O)CSc2nc(-c3ccccc3)c(N)s2)s1 = > 10.9 µg/mL
• NC(=O)c1cc(-c2ccccc2)sc1NC(=O)Cc1ccc2c(c1)OCO2 = > 11.4 µg/mL
• CC(C)S(=O)(=O)c1ccc(C(=O)Nc2ccccc2-c2nc3ccccc3[nH]2)cc1 = > 12.6 µg/mL
• Cn1ncc2c(N3CCOCC3)nc(NCCc3c[nH]c4ccccc34)nc21 = 3.75 µg/mL
• Cc1cc(=O)[nH]c(-n2nc(C)cc2NC(=O)C2c3ccccc3Oc3ccccc32)n1 = 0.504 µg/mL
• Cc1[nH]c2ccccc2c1SCCNC(=O)c1c(-c2ccccc2Cl)noc1C = > 12.8 µg/mL
• Cc1cc(-c2nnc(NC(=O)C3CCCCN3S(=O)(=O)c3cccs3)o2)nn1C (stereo not drawn) = 4.91 µg/mL
• CCCN1C(=O)C(C)(C)COc2cc(NS(=O)(=O)c3c(C)c(C)cc(C)c3C)ccc21 = > 13.3 µg/mL
• CN(C)CCCN(C(=O)c1ccccc1F)c1nc2c(Cl)cccc2s1 = 3.81 µg/mL
• CCOC(=O)c1ccc(NC(=O)CCSc2ccc(C)cc2)cc1 = > 10.3 µg/mL

Lookup: Which value of IC50 has been reported for `O=C(Nc1nc2c(s1)CCCC2)C1CCN(S(=O)(=O)c2ccc(F)cc2)CC1` in the records?
Found: > 12.7 µg/mL

Lookup: Same thing, different compound: `O=C(c1ccc(Cl)cc1Cl)N1CCN(c2ccc(Nc3cccnc3)nn2)CC1`
Found: > 12.9 µg/mL

Lookup: Further, for `CC(C)CC(=O)NCCOc1ccc2nnc(-c3ccccc3)n2n1` ?
Found: > 10.2 µg/mL

Lookup: One more compound: `COc1ccc(N2CCCS2(=O)=O)cc1NC(=O)c1cc(Cl)ccc1OC`
Found: > 12.3 µg/mL

Lookup: # iterate: `O=C(Nc1ccccc1)N1CCN(c2ccc(Nc3ccccn3)nn2)CC1`
Found: 11.3 µg/mL

Lookup: Can you handle `O=S(=O)(c1cccc(F)c1)N1CCN(c2ccc(Nc3cccnc3)nn2)CC1` next?
Found: 0.937 µg/mL

Lookup: Then `COc1ccc(C)cc1S(=O)(=O)N1CCN(c2ccc(-c3cccs3)nn2)CC1` ?
Found: > 12.9 µg/mL

Lookup: Entry to check: `O=C(Cn1c(S(=O)(=O)Cc2ccccc2)nc2ccccc21)N1CCN(c2ccccc2)CC1`
Found: > 14.2 µg/mL

Lookup: Subsequent entry: Cc1cc(=O)n2c(n1)SCC2CC(=O)NCCC(c1ccccc1)c1ccccc1 (stereo not drawn)
Found: > 12.6 µg/mL

Lookup: Next compound: `COc1ccc(-c2ccc(=O)n(CCCNC(=O)Cc3ccc(F)cc3)n2)cc1`
Found: 11.3 µg/mL

Data provenance is ChEMBL document CHEMBL2093137.
